Target: T1, human CD8A-Fc (recombinant human CD8 alpha fused to Fc fragment of human IgG1) (human, UniProt P01732 22-182, limits assumed)
T1 construct: SPR ligand, captured by goat anti-human Fc; also called hCD8A-Fc; recombinant CD8 alpha; not shown: linker with flag (and polyhistidine) tag and Fc fragment of human IgG1; depends on which of the two constructs was used
T1 sequence (P01732 22-182 limits assumed): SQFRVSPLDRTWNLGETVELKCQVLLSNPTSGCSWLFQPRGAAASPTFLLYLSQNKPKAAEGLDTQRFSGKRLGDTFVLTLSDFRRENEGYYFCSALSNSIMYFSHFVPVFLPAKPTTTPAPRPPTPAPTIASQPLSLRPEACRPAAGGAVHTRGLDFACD
Assay: SPR, dissociation rate on recombinant CD8 alpha
readout: koff (s⁻¹)

CD8S405 (designed binder, P48T mutant of P282ER9P1360_C8; the entry holds the mutation) LPAPKNLVVSRVTEDSARLSWTAPDAAFDSFGILYYEPVDSGEAITLTVPGSERSYDLTGLKPGTEYWVVITGVKGGAPSTPLGTIFTT : 0.00114
CD8S392 (designed binder, W38Y mutant of P282DR9P1359_F7; the entry holds the mutation) LPAPKNLVVSRVTEDSARLSWTAPDAAFDSFAIAYPEYPPQGEAIVLTVPGSERSYDLTGLKPGTEYFVVIYGVKGGSYSAPLSAIFTT : 0.00155
CD8S388 (designed binder, N81Q mutant of P282DR9P1359_G7; the entry holds the mutation) LPAPKNLVVSRVTEDSARLSWTAPDAAFDSFAITYIEKEHIEDGEAIVLTVPGSERSYDLTGLKPGTEYWVPIWGVKGGAQSWPLSAIFTT : 7.54e-05
CD8S395 (designed binder, W38H mutant of P282DR9P1359_F7; the entry holds the mutation) LPAPKNLVVSRVTEDSARLSWTAPDAAFDSFAIAYPEHPPQGEAIVLTVPGSERSYDLTGLKPGTEYFVVIYGVKGGSYSAPLSAIFTT : 0.00189

[a] CD8S394 (designed binder, W38I mutant of P282DR9P1359_F7; the entry holds the mutation) LPAPKNLVVSRVTEDSARLSWTAPDAAFDSFAIAYPEIPPQGEAIVLTVPGSERSYDLTGLKPGTEYFVVIYGVKGGSYSAPLSAIFTT
[b] CD8S403 (designed binder, P36A mutant of P282DR9P1359_F7; the entry holds the mutation) LPAPKNLVVSRVTEDSARLSWTAPDAAFDSFAIAYAEWPPQGEAIVLTVPGSERSYDLTGLKPGTEYFVVIYGVKGGSYSAPLSAIFTT
Exercise: Among a and b , which shows a numerically higher koff result? Please respond with the label that marks your chosen entry.
Key: a
(a: 0.00355 s⁻¹, b: 0.000133 s⁻¹)

[a] CD8S398 (designed binder, W32S mutant of P282DR9P1359_C5; the entry holds the mutation) LPAPKNLVVSRVTEDSARLSWTAPDAAFDSFSITYPEWPDPGGEAIVLTVPGSERSYDLTGLKPGTEYFVVIYGVKGGEIYSPLSAIFTT
[b] CD8S380 (designed binder, W70Y mutant of P282DR9P1359_G7; the entry holds the mutation) LPAPKNLVVSRVTEDSARLSWTAPDAAFDSFAITYIEKEHIEDGEAIVLTVPGSERSYDLTGLKPGTEYYVPIWGVKGGANSWPLSAIFTT
[c] CD8S382 (designed binder, W70S mutant of P282DR9P1359_G7; the entry holds the mutation) LPAPKNLVVSRVTEDSARLSWTAPDAAFDSFAITYIEKEHIEDGEAIVLTVPGSERSYDLTGLKPGTEYSVPIWGVKGGANSWPLSAIFTT
[d] CD8S381 (designed binder, W70F mutant of P282DR9P1359_G7; the entry holds the mutation) LPAPKNLVVSRVTEDSARLSWTAPDAAFDSFAITYIEKEHIEDGEAIVLTVPGSERSYDLTGLKPGTEYFVPIWGVKGGANSWPLSAIFTT
[e] CD8S393 (designed binder, W38L mutant of P282DR9P1359_F7; the entry holds the mutation) LPAPKNLVVSRVTEDSARLSWTAPDAAFDSFAIAYPELPPQGEAIVLTVPGSERSYDLTGLKPGTEYFVVIYGVKGGSYSAPLSAIFTT
Exercise: Please list these in order of increasing koff. Thank you! Form entry: labels listed in requested order.
Key: d, a, b, e, c
(d: 0.0002 s⁻¹, a: 0.000443 s⁻¹, b: 0.00121 s⁻¹, e: 0.00255 s⁻¹, c: 0.247 s⁻¹)

[a] CD8S399 (designed binder, W38Y mutant of P282DR9P1359_C5; the entry holds the mutation) LPAPKNLVVSRVTEDSARLSWTAPDAAFDSFWITYPEYPDPGGEAIVLTVPGSERSYDLTGLKPGTEYFVVIYGVKGGEIYSPLSAIFTT
[b] CD8S389 (designed binder, W68F mutant of P282ER9P1360_C8; the entry holds the mutation) LPAPKNLVVSRVTEDSARLSWTAPDAAFDSFGILYYEPVDSGEAITLPVPGSERSYDLTGLKPGTEYFVVITGVKGGAPSTPLGTIFTT
[c] CD8S391 (designed binder, W68H mutant of P282ER9P1360_C8; the entry holds the mutation) LPAPKNLVVSRVTEDSARLSWTAPDAAFDSFGILYYEPVDSGEAITLPVPGSERSYDLTGLKPGTEYHVVITGVKGGAPSTPLGTIFTT
[d] CD8S383 (designed binder, W74Y mutant of P282DR9P1359_G7; the entry holds the mutation) LPAPKNLVVSRVTEDSARLSWTAPDAAFDSFAITYIEKEHIEDGEAIVLTVPGSERSYDLTGLKPGTEYWVPIYGVKGGANSWPLSAIFTT
[e] CD8S373 (designed binder, Printed as W48I mutant of P282DR9P1359_F5; the entry holds the mutation) LPAPKNLVVSRVTEDSARLSWTAPDAAFDSFQIAYPEIPPPGEAIVLTVPGSERSYDLTGLKPGTEYFVIIQGVKGGVESWPLSAIFTT
Exercise: Order field: koff | Direction: descending (largest first) Form entry: labels listed in requested order.
Key: e, a, d, c, b
(e: 0.00403 s⁻¹, a: 0.00134 s⁻¹, d: 0.000747 s⁻¹, c: 0.00032 s⁻¹, b: 0.000184 s⁻¹)
